# Tested on: SCH;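 also: growth inhibition of human SCH cells, read out in a cell viability assay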
# PROCEDURE_TEXT: cells
# Type: functional, cell-based, Homo sapiens
# CONDITIONS: sch
# Description: SANGER: Inhibition of human SCH cell growth in a cell viability assay.
MEASUREMENT_NAME: pIC50
Numbers only, as −log10 of the molar value.

Short answer for `CISPLATIN` : pIC50 was 4.88

====

# Test system: S-117
# PROCEDURE_TEXT: cells
# Format: functional, cell-based, Homo sapiens
# CONDITIONS: Homo sapiens, S-117
# Description: SANGER: Inhibition of human S-117 cell growth in a cell viability assay.
For each entry below, report its IC50 value.

Here are 5 compounds together with their reported answers.
>  <COMPOUND>
COc1cccc2c1C(=O)c1c(O)c3c(c(O)c1C2=O)C[C@@](O)(C(=O)CO)C[C@@H]3O[C@H]1C[C@H](N)[C@H](O)[C@H](C)O1 [DOXORUBICIN]

>  <IC50>
> 1020 nM

$$$$
>  <COMPOUND>
Nc1cccc2c1CN(C1CCC(=O)NC1=O)C2=O (stereo unspecified) [LENALIDOMIDE]

>  <IC50>
> 5000 nM

$$$$
>  <COMPOUND>
Cc1cc([N+](=O)[O-])ccc1NS(=O)(=O)c1cc(Cl)ccc1Cl

>  <IC50>
< 125 nM

$$$$
>  <COMPOUND>
CS(=O)(=O)c1ccc(C(=O)Nc2ccc(Cl)c(-c3ccccn3)c2)c(Cl)c1 [VISMODEGIB]

>  <IC50>
> 10000 nM

$$$$
>  <COMPOUND>
CO[C@H]1C[C@@H]2CC[C@@H](C)[C@@](O)(O2)C(=O)C(=O)N2CCCC[C@H]2C(=O)O[C@H]([C@H](C)C[C@@H]2CC[C@@H](OC(=O)C(C)(CO)CO)[C@H](OC)C2)CC(=O)[C@H](C)/C=C(\C)[C@@H](O)[C@@H](OC)C(=O)[C@H](C)C[C@H](C)/C=C/C=C/C=C/1C [TEMSIROLIMUS]

>  <IC50>
105 nM

$$$$

Short answer for Cn1cnc2c(F)c(Nc3ccc(Br)cc3Cl)c(C(=O)NOCCO)cc21 [SELUMETINIB] : IC50 was > 4000 nM

====

# Tested on: DJM-1;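 also: growth inhibition of human DJM-1 cells, read out by a cell viability assay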
# PROCEDURE_TEXT: cells
# Assay type: functional, cell-based, Homo sapiens
# CONDITIONS: Homo sapiens, DJM-1
# Description: SANGER: Inhibition of human DJM-1 cell growth in a cell viability assay.
MEASUREMENT_NAME: IC50

Here are 2 compounds together with their reported answers.
>  <COMPOUND>
CCN(CC)CCNC(=O)c1c(C)[nH]c(/C=C2\C(=O)Nc3ccc(F)cc32)c1C [SUNITINIB]

>  <IC50>
> 8 µM

$$$$
>  <COMPOUND>
N#Cc1c(O)c2c(-c3ccc(-c4ccccc4O)cc3)csc2[nH]c1=O

>  <IC50>
> 1.02 µM

$$$$

Short answer for `COc1cc(-c2nn([C@H]3CC[C@H](N4CCN(C(C)=O)CC4)CC3)c3ncnc(N)c23)ccc1NC(=O)c1cc2ccccc2n1C` : IC50 was > 5.12 µM

====

For each entry below, report its IC50 value.
# System: NB5
# PROCEDURE_TEXT: cells
# Assay type: functional, cell-based, Homo sapiens
# CONDITIONS: Homo sapiens, NB5
# Description: SANGER: Inhibition of human NB5 cell growth in a cell viability assay.
Counter-ions that a name gives are not always drawn.

Here are 8 molecules together with their reported answers.
>  <MOLECULE>
COC1=CC(c2cc3ccccc3[nH]2)=N/C1=C\c1[nH]c(C)cc1C [OBATOCLAX MESYLATE]

>  <ASSAYED_TARGET>
NB5

>  <IC50>
1410 nM

$$$$
>  <MOLECULE>
CC(C)c1ccccc1Cc1cc(C(=O)Nc2ccc(S(=O)(=O)c3ccccc3C(C)(C)C)cc2)c(O)c(O)c1O

>  <ASSAYED_TARGET>
NB5

>  <IC50>
423 nM

$$$$
>  <MOLECULE>
CCC/C=C/C=C/C(=O)O[C@H]1/C(=C/C(=O)OC)C[C@H]2C[C@H]([C@@H](C)O)OC(=O)C[C@H](O)C[C@@H]3C[C@H](OC(C)=O)C(C)(C)[C@](O)(C[C@@H]4C/C(=C/C(=O)OC)C[C@H](/C=C/C(C)(C)[C@]1(O)O2)O4)O3

>  <ASSAYED_TARGET>
NB5

>  <IC50>
> 8 nM

$$$$
>  <MOLECULE>
C#Cc1cccc(Nc2ncnc3cc(OCCOC)c(OCCOC)cc23)c1

>  <ASSAYED_TARGET>
NB5

>  <IC50>
> 2000 nM

$$$$
>  <MOLECULE>
Nc1cccc2c1CN(C1CCC(=O)NC1=O)C2=O (centres undefined) [LENALIDOMIDE]

>  <ASSAYED_TARGET>
NB5

>  <IC50>
> 5000 nM

$$$$
>  <MOLECULE>
CC(=O)O[C@H]1C(=O)[C@@]2(C)[C@H]([C@H](OC(=O)c3ccccc3)[C@]3(O)C[C@H](OC(=O)[C@H](O)[C@@H](NC(=O)c4ccccc4)c4ccccc4)C(C)=C1C3(C)C)[C@]1(OC(C)=O)CO[C@@H]1C[C@@H]2O

>  <ASSAYED_TARGET>
NB5

>  <IC50>
> 102 nM

$$$$
>  <MOLECULE>
CO[C@H]1C[C@@H]2CC[C@@H](C)[C@@](O)(O2)C(=O)C(=O)N2CCCC[C@H]2C(=O)O[C@H]([C@H](C)C[C@@H]2CC[C@@H](OC(=O)C(C)(CO)CO)[C@H](OC)C2)CC(=O)[C@H](C)/C=C(\C)[C@@H](O)[C@@H](OC)C(=O)[C@H](C)C[C@H](C)/C=C/C=C/C=C/1C

>  <ASSAYED_TARGET>
NB5

>  <IC50>
111 nM

$$$$
>  <MOLECULE>
O=C(O)c1ccc(-c2c[nH]c3ncc(-c4ccccc4)cc23)cc1C1CCCC1

>  <ASSAYED_TARGET>
NB5;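 also: growth inhibition of NB5 cells, read out as cell viability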

>  <IC50>
> 16000 nM

$$$$

Consider the record given below.
Short answer for COc1cc2ncn(-c3cc(OCc4ccccc4S(C)(=O)=O)c(C#N)s3)c2cc1OC [GSK-319347A] : IC50 was > 5000 nM

====

# System: L-540;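 also: growth inhibition of the human L-540 cell line, read out with a viability assay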
# PROCEDURE_TEXT: cells
# Format: functional, cell-based, Homo sapiens
# CONDITIONS: l-540
# Description: SANGER: Inhibition of human L-540 cell growth in a cell viability assay.
MEASUREMENT_NAME: IC50 (µM)
Answers are plain numbers, in µM.

Short answer for `BLEOMYCIN` : IC50 was 23.5

====

For each entry below, report its IC50 value.
# Tested on: NCI-H209;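 also: growth inhibition of human NCI-H209 cells, measured by a cell viability assay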
# PROCEDURE_TEXT: cells
# Assay type: functional, cell-based, Homo sapiens
# CONDITIONS: Homo sapiens, NCI-H209
# Description: SANGER: Inhibition of human NCI-H209 cell growth in a cell viability assay.
Where a name gives a salt, the structure may show the parent alone.
Give bare numbers, in µM.

>  <COMPOUND>
CC(C)CCN1c2nc(Nc3cc(F)c(O)c(F)c3)ncc2N(C)C(=O)C1C (stereo not given)

>  <IC50 (µM)>
0.768

$$$$

Consider the record given below.
Form: item COC1=CC(c2cc3ccccc3[nH]2)=N/C1=C\c1[nH]c(C)cc1C [OBATOCLAX MESYLATE] ; test system NCI-H209; IC50: 3.68

====

# System: 5637
# PROCEDURE_TEXT: cells
# Assay type: functional, cell-based, Homo sapiens
# CONDITIONS: Homo sapiens
# Description: SANGER: Inhibition of human 5637 cell growth in a cell viability assay.
pIC50: −log10 of the molar value. Structures can show the parent of a compound that is named as a salt.
MEASUREMENT_NAME: pIC50

Here are 3 compounds together with their reported answers.
>  <COMPOUND>
Cn1cnc2c(F)c(Nc3ccc(Br)cc3Cl)c(C(=O)NOCCO)cc21

>  <pIC50>
< 5.40

$$$$
>  <COMPOUND>
CO[C@H]1C[C@@H]2CC[C@@H](C)[C@@](O)(O2)C(=O)C(=O)N2CCCC[C@H]2C(=O)O[C@H]([C@H](C)C[C@@H]2CC[C@@H](OC(=O)C(C)(CO)CO)[C@H](OC)C2)CC(=O)[C@H](C)/C=C(\C)[C@@H](O)[C@@H](OC)C(=O)[C@H](C)C[C@H](C)/C=C/C=C/C=C/1C

>  <pIC50>
< 6.70

$$$$
>  <COMPOUND>
Oc1ccc2ccccc2c1SSc1c(O)ccc2ccccc12

>  <pIC50>
< 4.49

$$$$

Please go through the list and note pIC50 for each compound.
1. COC1=CC(c2cc3ccccc3[nH]2)=N/C1=C\c1[nH]c(C)cc1C [OBATOCLAX MESYLATE]
2. Nc1cccc2c1CN(C1CCC(=O)NC1=O)C2=O (stereo unspecified) [LENALIDOMIDE]
3. Cc1cc([N+](=O)[O-])ccc1NS(=O)(=O)c1cc(Cl)ccc1Cl

[7.08, "< 5.30", 5.14]

====

# System: 8305C
# PROCEDURE_TEXT: cells
# Type: functional, cell-based, Homo sapiens
# CONDITIONS: Homo sapiens, 8305C
# Description: SANGER: Inhibition of human 8305C cell growth in a cell viability assay.
pIC50: −log10 of the molar value.
For each entry below, report its pIC50 value.

>  <COMPOUND>
COc1cc2c(Nc3ccc(NC(=O)c4ccccc4)cc3)ncnc2cc1OCCCN1CCOCC1

>  <MEASURED_VALUE>
< 5.40

$$$$

Please go through the list and note pIC50 for each compound.
1. Cc1cn(-c2cc(NC(=O)c3ccc(C)c(Nc4nccc(-c5cccnc5)n4)c3)cc(C(F)(F)F)c2)cn1 [NILOTINIB]
2. CC1(C)CNc2cc(NC(=O)c3cccnc3NCc3ccncc3)ccc21 [MOTESANIB]
3. Nc1cccc2c1CN(C1CCC(=O)NC1=O)C2=O (stereo not given) [LENALIDOMIDE]
4. CCC/C=C/C=C/C(=O)O[C@H]1/C(=C/C(=O)OC)C[C@H]2C[C@H]([C@@H](C)O)OC(=O)C[C@H](O)C[C@@H]3C[C@H](OC(C)=O)C(C)(C)[C@](O)(C[C@@H]4C/C(=C/C(=O)OC)C[C@H](/C=C/C(C)(C)[C@]1(O)O2)O4)O3 [BRYOSTATIN 1]

["< 5.70", "< 5.70", "< 5.30", "< 8.10"]
